- target entity: T1, Human EphA2 (ephrin receptor A2) (human, UniProt P29317 24-976)
- T1 construct: Endogenous protein in frozen human tumor tissue and tumor adjacent tissue, not a recombinant construct
- T1 sequence (P29317 24-976 limits assumed): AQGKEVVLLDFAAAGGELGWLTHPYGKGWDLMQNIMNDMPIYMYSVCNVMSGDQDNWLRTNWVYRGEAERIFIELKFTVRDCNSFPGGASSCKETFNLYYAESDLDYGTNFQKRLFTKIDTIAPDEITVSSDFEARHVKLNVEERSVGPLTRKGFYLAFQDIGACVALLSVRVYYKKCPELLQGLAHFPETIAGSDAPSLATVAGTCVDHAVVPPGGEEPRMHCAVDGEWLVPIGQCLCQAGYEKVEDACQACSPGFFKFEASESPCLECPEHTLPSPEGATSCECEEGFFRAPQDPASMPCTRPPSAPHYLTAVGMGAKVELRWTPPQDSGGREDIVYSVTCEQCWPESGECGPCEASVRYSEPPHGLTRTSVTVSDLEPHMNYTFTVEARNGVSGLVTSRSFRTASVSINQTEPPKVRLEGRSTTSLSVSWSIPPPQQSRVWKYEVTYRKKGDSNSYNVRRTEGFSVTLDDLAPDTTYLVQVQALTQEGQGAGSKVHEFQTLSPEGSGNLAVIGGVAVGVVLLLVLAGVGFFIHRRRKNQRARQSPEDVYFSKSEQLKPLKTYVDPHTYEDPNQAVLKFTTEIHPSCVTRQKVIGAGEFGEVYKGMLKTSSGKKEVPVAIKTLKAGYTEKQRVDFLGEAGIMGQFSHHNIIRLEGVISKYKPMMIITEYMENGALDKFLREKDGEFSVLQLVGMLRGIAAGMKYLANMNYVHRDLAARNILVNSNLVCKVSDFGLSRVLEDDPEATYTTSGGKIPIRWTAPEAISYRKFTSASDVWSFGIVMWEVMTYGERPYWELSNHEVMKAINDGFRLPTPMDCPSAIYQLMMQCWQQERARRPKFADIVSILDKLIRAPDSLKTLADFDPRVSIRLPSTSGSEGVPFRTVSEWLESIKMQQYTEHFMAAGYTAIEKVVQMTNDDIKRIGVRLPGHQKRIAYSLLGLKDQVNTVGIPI
- method description: IHC/IF score on frozen human tumor tissue, NSCLC-Adeno
assay endpoint: IHC score

Data request: I would be grateful if you could share the reported IHC score for AB-009812 (antibody, mouse IgG2a, V domains shown) VH: QVQLQQWGAGLLKPSETLSLTCAVYGGSFSDYYWSWIRQPPGKGLEWIGEVNHSGSINYNNYNPSLKSRVTISVDPSKNQFSLKLTSVTAADTAVYYCAKPLRPHCTNGVCYSGDAFDIWGQGTMVTVAS VL: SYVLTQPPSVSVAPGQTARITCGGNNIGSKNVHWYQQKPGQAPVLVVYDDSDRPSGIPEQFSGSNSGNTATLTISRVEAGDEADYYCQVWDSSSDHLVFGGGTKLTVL .
Data returned: 2
